Value source: patent US20230339981A1

# Test system: GP2D (KRAS G12D) cells
# Assay procedure: 2D cell viability assay (CellTiter-Glo)
# Assay type: cell-based
# Run parameters: GP2d, 96 h, 4 days
Measured pEC50, listed per entry for reference.
Scale: pEC50 equals -log10([C]), with [C] in mol/L.

{"columns": ["Molecule", "Test system", "Recorded number"],
 "data": [
  ["C#Cc1c(F)ccc2cc(O)cc(-c3nc4c5c(nc(OCC6(CN7CCC(CC(F)(F)F)CC7)CC6)nc5c3F)N3C[C@H]5CC[C@H](N5)[C@H]3CC4)c12 [Example 167]", "GP2D (KRAS G12D) cells", 9.15],
  ["C#Cc1c(F)ccc2cccc(-c3nc4c5c(nc(OC[C@@]67CCCN6[C@H](COC(C6CC6)C(F)(F)F)CC7)nc5c3F)N3C[C@H]5CC[C@H](N5)[C@H]3CCC4)c12 (some centres unmarked) [Example 117]", "GP2D (KRAS G12D) cells", 8.07],
  ["C#Cc1c(F)ccc2cc(O)cc(-c3nc4c5c(nc(OC[C@@]67CCCN6C[C@H](F)C7)nc5c3F)N3C[C@H]5CC[C@H](N5)[C@H]3CC4)c12 [Example 22]", "GP2D (KRAS G12D) cells", 9.22],
  ["C#Cc1c(F)ccc2cccc(-c3nc4c5c(nc(OC[C@@]67CCCN6[C@H](COC(C(F)(F)F)(C(F)(F)F)C(F)(F)F)CC7)nc5c3F)N3C[C@H]5CC[C@H](N5)[C@H]3CC4)c12 [Example 187]", "GP2D (KRAS G12D) cells", 7.21],
  ["C#Cc1c(F)ccc2cccc(-c3nc4c5c(nc(OC[C@@]67CCCN6C[C@H](F)C7)nc5c3F)N3C[C@H]5CC[C@H](N5)[C@H]3CC4(F)F)c12 [Example 98]", "GP2D (KRAS G12D) cells", 6.91],
  ["C#Cc1c(F)ccc2cc(O)cc(-c3nc4c5c(nc(OC[C@@]67CCCN6C[C@H](OC(C(F)(F)F)(C(F)(F)F)C(F)(F)F)C7)nc5c3F)N3C[C@H]5CC[C@H](N5)[C@H]3CC4)c12 [Example 129]", "GP2D (KRAS G12D) cells", 7.88],
  ["C#Cc1c(F)ccc2cc(O)cc(-c3nc4c5c(nc(OC[C@@]67CCCN6C[C@H](F)C7)nc5c3F)N3C[C@H]5CC[C@H](N5)[C@@H]3[C@H](CC)C4)c12 [Example 90]", "GP2D (KRAS G12D) cells", 6.00],
  ["C#Cc1c(F)ccc2cccc(-c3nc4c5c(nc(OC[C@@]67CCCN6C[C@H](F)C7)nc5c3F)N3C[C@H]5CC[C@H](N5)[C@@H]3[C@@H](CC)C4)c12 [Example 91]", "GP2D (KRAS G12D) cells", 6.00]
]}

Give the reported pEC50 for this molecule. C#Cc1c(F)ccc2cccc(-c3nc4c5c(nc(OC[C@@]67C[C@@H](F)CN6CC6(CC6)C7)nc5c3F)N3C[C@H]5CC[C@H](N5)[C@H]3CC4)c12 [Example 113]
8.14

Identify measured pEC50 corresponding to C#Cc1c(F)ccc2cc(O)cc(-c3nc4c5c(nc(OC[C@@]67CCCN6C[C@H](F)C7)nc5c3F)N3C[C@H]5CC[C@H](N5)[C@@H]3[C@@H](CC)C4)c12 [Example 92]
7.76

In one line, give reported pEC50 of the entry C#Cc1c(F)ccc2cccc(-c3nc4c5c(nc(OC[C@@]67CCCN6[C@H](COC(C)(C(F)(F)F)C(F)(F)F)CC7)nc5c3F)N3C[C@H]5CC[C@H](N5)[C@H]3CC4)c12 [Example 112] .
7.39

For C#Cc1c(F)ccc2cccc(-c3nc4c5c(nc(OC[C@@]67CCCN6[C@H](COc6cccc(S(F)(F)(F)(F)F)c6)CC7)nc5c3F)N3C[C@H]5CC[C@H](N5)[C@H]3CCC4)c12 [Example 118] , write its pEC50.
7.14

Provide one value: measured pEC50 of C#Cc1c(F)ccc2cc(O)cc(-c3nc4c5c(nc(OCC6(CN7CCC8(CC7)CC8(F)F)CC6)nc5c3F)N3C[C@H]5CC[C@H](N5)[C@H]3CC4)c12 [Example 185]
8.57

State its pEC50 for this molecule: C#Cc1c(F)ccc2cc(O)cc(-c3nc4c5c(nc(OC[C@@]67CCCN6C[C@H](F)C7)nc5c3F)N3C[C@H]5CC[C@H](N5)[C@@H]3CCC4)c12 [Example 132]
8.66

Provide one value: measured pEC50 of C#Cc1c(F)ccc2cccc(-c3nc4c5c(nc(OCC6(CN7CCC(OC(F)(F)F)CC7)CC6)nc5c3F)N3C[C@H]5CC[C@H](N5)[C@H]3CC4)c12 [Example 107]
6.34

Quote pEC50 reported for C#Cc1c(F)ccc2cccc(-c3nc4c5c(nc(OC[C@@]67CCCN6C[C@H](F)C7)nc5c3F)N3C[C@H]5CC[C@H](N5)[C@H]3C[C@H]4C)c12 [Example 95] please.
7.50

Given the molecule C#Cc1c(F)ccc2cc(O)cc(-c3nc4c5c(nc(OCC6(CN7CCCOCC7)CC6)nc5c3F)N3C[C@H]5CC[C@H](N5)[C@H]3CO4)c12 [Example 35] , write its reported pEC50.
8.22

Report measured pEC50; entry is C#Cc1c(F)ccc2cccc(-c3nc4c5c(nc(OC[C@@]67CCCN6C[C@H](F)C7)nc5c3F)N3C[C@@]5(C)CC[C@H](N5)[C@H]3CC4)c12 [Example 191]
7.40

Specify reported pEC50 for the molecule shown: C#Cc1c(F)ccc2cccc(-c3nc4c5c(nc(OCC6(CN7CCC(OC(F)(F)F)CC7)CC6)nc5c3F)N3C[C@H]5CC[C@H](N5)[C@@H]3[C@@H](C)C4)c12 [Example 88]
6.59
